target: Advanced glycosylation end product-specific receptor (Homo sapiens, UniProt Q15109); assay: Inhibition of human recombinant biotinylated receptor for advanced glycation end product expressed in Escherichia coli DE3 assessed as inhibition of binding to amyloid beta (1 to 42) at 20 uM after 60 mins by TMB-ELISA
Sequence (Q15109 whole entry): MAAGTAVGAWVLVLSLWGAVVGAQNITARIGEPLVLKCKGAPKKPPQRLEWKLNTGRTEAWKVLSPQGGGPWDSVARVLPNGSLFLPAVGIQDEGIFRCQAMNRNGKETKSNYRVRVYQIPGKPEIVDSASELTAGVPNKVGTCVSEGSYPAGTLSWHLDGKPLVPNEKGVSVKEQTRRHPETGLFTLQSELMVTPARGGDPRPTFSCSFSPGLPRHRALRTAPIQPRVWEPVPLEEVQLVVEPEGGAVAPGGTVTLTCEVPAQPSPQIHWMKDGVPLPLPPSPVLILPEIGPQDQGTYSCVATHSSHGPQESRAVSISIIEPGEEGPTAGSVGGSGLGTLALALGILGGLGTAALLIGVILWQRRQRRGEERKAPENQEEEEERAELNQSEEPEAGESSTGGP
The source made the active and inactive calls. The calls are words filed in the database; no cut-off is given here.
Quantity Name: inhibition

Examples from the recorded data:
{"Chem Smiles": "CCN(CC)CCOc1ccc(Nc2nc(C)cc(-c3ccc(Oc4ccc5ccccc5c4)cc3)n2)cc1", "inhibition": "21.4%"}
{"Chem Smiles": "Cc1nc(NC(=O)CCCC(=O)O)nc(C)c1OCc1ccccc1", "inhibition": "inactive"}
{"Chem Smiles": "CCN(CC)CCOc1ccc(Nc2nc(C)cc(-c3ccc(Cl)cc3)n2)cc1", "inhibition": "37.1%"}
{"Chem Smiles": "CCN(CC)CCOc1ccc(Nc2nc(C)cc(N3CCCCC3)n2)cc1", "inhibition": "43.3%"}
{"Chem Smiles": "CCN(CC)CCOc1ccccc1Nc1nc(-c2ccc(Cl)cc2)cc(-c2ccc(Cl)cc2)n1", "inhibition": "70.8%"}
{"Chem Smiles": "CCN(CC)CCOc1cccc(Nc2nc(C)cc(-c3ccc(Cl)cc3)n2)c1", "inhibition": "41.6%"}

## Task Which value of inhibition has been reported for CCN(CC)CCCC(=O)Nc1nc(C)c(OCc2ccccc2)c(C)n1 in the records?
## Result inactive

## Task Request: CCN(CC)CCOc1ccc(Nc2nc(C)cc(-c3ccc(OCc4ccc(Cl)cc4)cc3)n2)cc1
## Result 12.7%

## Task Okay, and CCN(CC)CCCCNc1nc(C)c(OC)c(C)n1 ?
## Result inactive

## Task Record: CCN(CC)CCOc1ccc(Nc2nc(C)cc(C)n2)cc1
## Result 16%

## Task Similarly, CCN(CC)CCOc1ccc(Nc2nc(C)c(OCc3ccccc3)c(C)n2)cc1 ?
## Result 14.6%
